B1: CPEB3 Ribozyme (parent)
chain: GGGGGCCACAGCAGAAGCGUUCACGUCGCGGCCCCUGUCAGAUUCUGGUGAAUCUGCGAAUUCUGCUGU

Variants of: B1
Test: self-cleavage, relative activity (ratio to wild type); higher = more cleavage; co-transcriptional
Categories are assigned from the measured self-cleavage using these intervals: LOW (below 0.2), MID (0.2 to below 0.7), HIGH (0.7 or more)

Known results for variants:
{"columns": ["mutation.id", "label.class"],
 "data": [
  ["G37C C39G", "LOW"],
  ["U21A C63U", "HIGH"],
  ["A8C A23G", "HIGH"]
]}

Problem: Could you place G2A G58C in its proper category? Many thanks.
Result: LOW

Problem: Okay, and G17U C32A ?
Result: LOW

Problem: Okay, and U43G C66A ?
Result: MID

Problem: Okay, and U21C C57A ?
Result: MID
